Target chain: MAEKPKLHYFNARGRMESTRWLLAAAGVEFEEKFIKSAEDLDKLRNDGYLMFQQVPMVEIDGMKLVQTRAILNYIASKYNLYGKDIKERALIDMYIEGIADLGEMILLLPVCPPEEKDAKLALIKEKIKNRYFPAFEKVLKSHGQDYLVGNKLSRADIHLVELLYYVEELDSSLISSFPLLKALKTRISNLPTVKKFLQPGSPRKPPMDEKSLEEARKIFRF
value kind: Ki (nM)

1) O=C(c1ccccc1O)c1cc(Br)ccc1O: 360

Hey, just so you know, these numbers are from ChEMBL document CHEMBL3352649.
